The reported numbers originate from a melting point compilation (Tetko et al.; mined from patent text by program, amines drawn as free bases though some values may be those of a salt).

melting point values, listed per item

What does the data say about its melting point? Entry: O=C(O)CCCNC(=O)c1cc(Cl)ccc1O
136 to 140 °C

For the compound shown here, CC(=O)c1ccc(C=CC(=O)NCCO)cc1 , give the reported melting point.
124 to 125 °C

Item under review: COc1cc(N)c(C(=O)O)c(OC)c1OC . Reported melting point?
88 to 91 °C

State the recorded melting point for this entry: CC(C)(CN)Cc1ccc(-c2ccc(CC(C)(C)CN)cc2)cc1
97 to 99 °C

====

# melting point listing for each entry below

Use these answered entries as a reference point.
What value of melting point has been recorded for this entry: CC1=C(O)CCC(C)(C)C1=O
112 to 114 °C

Reported melting point for Cc1ccc(S(=O)(=O)Oc2ccccc2NC(=O)c2cccc3[nH]ccc23)cc1 : what is it?
135 °C

Attention now turns to another entry.
Entry under review: CC(Sc1nc(N)cc(Cl)n1)c1ccc2ccccc2c1 (stereo not drawn) . Reported melting point?
55 to 58 °C
